Attribution: patent US11993588B2

protocol.details: Solvent solubility screen for Compound 1
Assay type: physicochemical
condition.notes: organic solvent or mixture, thermodynamic from solid; Ethanol; crystalline Compound 1 (Form 1); read-out: Approximate Solubility
observed.property: solubility

// query What solubility value was documented for this molecule, O=C(OC(C(F)(F)F)C(F)(F)F)N1CCN(Cc2ccc(C(F)(F)F)cc2N2CCCC2)CC1 [Compound 1] ?
// result 67 mg/mL

* * *

protocol.details: Solvent solubility screen for Compound 1
Format: physicochemical
condition.notes: organic solvent or mixture, thermodynamic from solid; Diisopropyl Ether; crystalline Compound 1 (Form 1); read-out: Approximate Solubility
observed.property: solubility

// query For O=C(OC(C(F)(F)F)C(F)(F)F)N1CCN(Cc2ccc(C(F)(F)F)cc2N2CCCC2)CC1 [Compound 1] , what is its reported solubility?
// result > 208 mg/mL
